- Tested on: OVCAR-4
- PROTOCOL: NCI tumour cell line growth inhibition, 48 h
The whole screen tested about 55,000 sequences, of which about 2,600 (4.7%) were called active. Not all results are given here. Potency and affinity values are given separately.
GI50 less than 10 µM is 1 (yes); GI50 greater than or equal to 10 µM is 0 (no).

Before answering, review these 6 worked examples.
                                  substance  answer_label
0  cis-Bis[[(trimethylsilyl)methyl]amino]tetrachloroplatinum(IV), CHEMBL2146191       1 (yes)
1  [Bis(aminomethyl)dimethylsilane]dichloroplatinum (II), CHEMBL2146201        0 (no)
2                    CISPLATIN, CHEMBL11359       1 (yes)
3  [Bis(aminomethyl)pentamethylenesilane]dichloropaltinum(II), CHEMBL2146202       1 (yes)
4  [Bis(aminomethyl)pentamethylenesilane]tetrachloropaltinum(IV), CHEMBL2146204        0 (no)
5  [Bis(aminomethyl)diethylsilane]tetrachloroplatinum(IV), CHEMBL2146203        0 (no)

*Q* Here's an entry: mu-(1,7-nanodiamine-N,N')bis-(cis-aminedichloroplatimum (II)), CHEMBL2146215 . Is its GI50 below 10 µM?
*A* 0 (no)
